ASSAYED_SYSTEM: truncated METTL3-14 complex (Homo sapiens)
Construct: MTase domain of human METTL3 (residues 369 to 580); METTL14 (residues 106 to 396); 10x His (thrombin-cleavable) (cleaved yes)
ASSAY_NAME: Bioluminescence enzyme assay, truncated form of METTL3-14 (methyltransferase domain)
COND: 1 μM truncated complex, 1 μM SAM, 500 nM RNA, 5 h
Method: An enzymatic bioluminescence assay was established to identify the METTL3-14 inhibitor through screening. […] METTL3-14 activity was assessed by measuring the luminescence using a Victor multilabel reader (PerkinElmer, Waltham, MA, USA). The IC50 values were calculated by a nonlinear regression analysis using OriginPro 9.1 software (OriginLab). […]
MEASURED_QUANTITY: pIC50
// pIC50 here means minus log10 of the molar concentration (mol/L)

In: Endpoint output: pIC50 of CC1=NN(c2ccc(C)c(C)c2)C(=O)/C1=N\Nc1cccc(-c2cccc(C(=O)O)c2)c1O [Eltrombopag] . Value?
Out: 4.92

----------
ASSAYED_SYSTEM: MLL4 complex (Homo sapiens)
Construct: purchased Reaction Biology (Malvern, PA, USA), contract assay
ASSAY_NAME: Methyltransferase selectivity panel (MT HotSpot radioisotope assay), MLL4 complex
Format: biochemical
COND: positive control
Experimental: The selectivity profile of eltrombopag was investigated by testing the level of inhibition in a methyltransferase panel. The inhibition of 7 […] methyltransferase was tested at Reaction Biology (Malvern, PA, USA) using a gold standard radioisotope-based MT assay (MT HotSpot^TM) with 10 μM of eltrombopag in duplicate.
MEASURED_QUANTITY: IC50 (µM)
Answer with a number only, understood to be in µM.

In: Endpoint output: IC50 of `Nc1ncnc2c1ncn2[C@@H]1O[C@H](CSCC[C@H](N)C(=O)O)[C@@H](O)[C@H]1O` . Value?
Out: 5.09

----------
MEASURED_QUANTITY: IC50 (µM)
Answer with a number only, understood to be in µM.

In: Write down the reported IC50 of `CN1C(=O)[C@@]23C[C@]4([C@]56C[C@@]78SS[C@@](CO)(C(=O)N7[C@H]5Nc5ccccc56)N(C)C8=O)c5ccccc5N[C@@H]4N2C(=O)[C@]1(CO)SS3` , test system: DOT1L (Homo sapiens).
Sequence (Q8TEK3 whole entry): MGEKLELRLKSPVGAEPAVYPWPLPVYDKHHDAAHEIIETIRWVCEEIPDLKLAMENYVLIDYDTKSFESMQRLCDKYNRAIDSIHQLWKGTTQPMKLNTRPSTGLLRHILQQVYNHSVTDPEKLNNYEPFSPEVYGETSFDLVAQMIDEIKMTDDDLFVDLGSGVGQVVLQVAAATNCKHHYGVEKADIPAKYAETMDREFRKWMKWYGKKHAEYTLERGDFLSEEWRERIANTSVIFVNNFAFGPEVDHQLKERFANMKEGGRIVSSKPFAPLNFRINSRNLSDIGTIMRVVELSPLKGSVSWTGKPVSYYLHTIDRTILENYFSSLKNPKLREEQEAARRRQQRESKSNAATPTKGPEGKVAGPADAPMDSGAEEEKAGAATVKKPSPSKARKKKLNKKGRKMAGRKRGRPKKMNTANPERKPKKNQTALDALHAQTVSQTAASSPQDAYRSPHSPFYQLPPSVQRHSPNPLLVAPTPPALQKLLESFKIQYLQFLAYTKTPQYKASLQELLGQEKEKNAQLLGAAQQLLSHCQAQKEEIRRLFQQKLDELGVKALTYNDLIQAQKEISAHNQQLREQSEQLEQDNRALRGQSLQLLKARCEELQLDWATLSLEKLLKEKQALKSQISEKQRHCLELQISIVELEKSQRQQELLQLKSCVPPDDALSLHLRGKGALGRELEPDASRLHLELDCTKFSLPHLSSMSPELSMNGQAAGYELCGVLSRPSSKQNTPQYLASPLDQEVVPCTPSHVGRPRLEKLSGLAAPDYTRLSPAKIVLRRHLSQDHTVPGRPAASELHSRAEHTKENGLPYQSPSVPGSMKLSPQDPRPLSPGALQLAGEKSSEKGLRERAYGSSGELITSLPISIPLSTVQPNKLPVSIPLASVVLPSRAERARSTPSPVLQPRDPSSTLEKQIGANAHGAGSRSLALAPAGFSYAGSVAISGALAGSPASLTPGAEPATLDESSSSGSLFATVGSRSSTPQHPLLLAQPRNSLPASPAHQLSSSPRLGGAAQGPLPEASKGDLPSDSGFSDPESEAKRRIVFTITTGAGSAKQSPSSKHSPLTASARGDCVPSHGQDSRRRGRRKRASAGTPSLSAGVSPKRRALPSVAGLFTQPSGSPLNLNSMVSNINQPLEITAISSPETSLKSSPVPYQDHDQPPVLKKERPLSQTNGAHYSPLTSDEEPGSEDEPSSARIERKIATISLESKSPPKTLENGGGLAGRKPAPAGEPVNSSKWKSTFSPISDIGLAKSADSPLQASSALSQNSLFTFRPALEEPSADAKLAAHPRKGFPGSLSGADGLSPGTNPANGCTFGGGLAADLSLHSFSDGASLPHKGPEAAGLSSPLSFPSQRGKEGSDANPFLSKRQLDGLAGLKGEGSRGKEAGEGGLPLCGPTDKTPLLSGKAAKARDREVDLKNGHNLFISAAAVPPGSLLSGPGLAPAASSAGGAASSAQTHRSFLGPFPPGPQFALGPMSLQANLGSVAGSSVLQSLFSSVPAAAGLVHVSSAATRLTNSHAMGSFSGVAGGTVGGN
Out: 0.217

----------
ASSAYED_SYSTEM: METTL3 (Homo sapiens)
Construct: 10x His (thrombin-cleavable)
Sequence (Q86U44 whole entry): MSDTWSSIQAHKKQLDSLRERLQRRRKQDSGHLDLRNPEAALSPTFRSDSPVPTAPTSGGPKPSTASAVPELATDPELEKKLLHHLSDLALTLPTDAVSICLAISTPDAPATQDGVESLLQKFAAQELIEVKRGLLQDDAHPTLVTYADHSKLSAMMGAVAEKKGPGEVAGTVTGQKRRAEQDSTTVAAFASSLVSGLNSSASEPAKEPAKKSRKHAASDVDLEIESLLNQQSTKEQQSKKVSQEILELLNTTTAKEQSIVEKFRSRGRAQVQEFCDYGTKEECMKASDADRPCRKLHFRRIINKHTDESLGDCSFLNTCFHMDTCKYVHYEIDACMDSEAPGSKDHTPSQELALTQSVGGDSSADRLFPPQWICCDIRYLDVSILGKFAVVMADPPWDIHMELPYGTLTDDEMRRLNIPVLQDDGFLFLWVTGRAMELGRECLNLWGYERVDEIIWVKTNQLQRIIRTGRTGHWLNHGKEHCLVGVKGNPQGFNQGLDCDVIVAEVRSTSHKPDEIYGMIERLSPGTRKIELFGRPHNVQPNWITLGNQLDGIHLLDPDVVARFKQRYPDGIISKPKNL
ASSAY_NAME: Bioluminescence enzyme assay, single form of METTL3
COND: 1 μM METTL3, 1 μM SAM, 500 nM RNA, 5 h; read-out: IC50, single subunit enzyme form of METTL3
MEASURED_QUANTITY: IC50 (µM)
Answer with a number only, understood to be in µM.

In: Endpoint output: IC50 of `CC1=NN(c2ccc(C)c(C)c2)C(=O)/C1=N\Nc1cccc(-c2cccc(C(=O)O)c2)c1O` . Value?
Out: 7.04

----------
MEASURED_QUANTITY: IC50
Kindly write the number and append the unit.

In: Write down the reported IC50 of `Nc1ncnc2c1ncn2[C@@H]1O[C@H](CSCC[C@H](N)C(=O)O)[C@@H](O)[C@H]1O` , test system: SETD2 (Homo sapiens).
Sequence (Q9BYW2 whole entry): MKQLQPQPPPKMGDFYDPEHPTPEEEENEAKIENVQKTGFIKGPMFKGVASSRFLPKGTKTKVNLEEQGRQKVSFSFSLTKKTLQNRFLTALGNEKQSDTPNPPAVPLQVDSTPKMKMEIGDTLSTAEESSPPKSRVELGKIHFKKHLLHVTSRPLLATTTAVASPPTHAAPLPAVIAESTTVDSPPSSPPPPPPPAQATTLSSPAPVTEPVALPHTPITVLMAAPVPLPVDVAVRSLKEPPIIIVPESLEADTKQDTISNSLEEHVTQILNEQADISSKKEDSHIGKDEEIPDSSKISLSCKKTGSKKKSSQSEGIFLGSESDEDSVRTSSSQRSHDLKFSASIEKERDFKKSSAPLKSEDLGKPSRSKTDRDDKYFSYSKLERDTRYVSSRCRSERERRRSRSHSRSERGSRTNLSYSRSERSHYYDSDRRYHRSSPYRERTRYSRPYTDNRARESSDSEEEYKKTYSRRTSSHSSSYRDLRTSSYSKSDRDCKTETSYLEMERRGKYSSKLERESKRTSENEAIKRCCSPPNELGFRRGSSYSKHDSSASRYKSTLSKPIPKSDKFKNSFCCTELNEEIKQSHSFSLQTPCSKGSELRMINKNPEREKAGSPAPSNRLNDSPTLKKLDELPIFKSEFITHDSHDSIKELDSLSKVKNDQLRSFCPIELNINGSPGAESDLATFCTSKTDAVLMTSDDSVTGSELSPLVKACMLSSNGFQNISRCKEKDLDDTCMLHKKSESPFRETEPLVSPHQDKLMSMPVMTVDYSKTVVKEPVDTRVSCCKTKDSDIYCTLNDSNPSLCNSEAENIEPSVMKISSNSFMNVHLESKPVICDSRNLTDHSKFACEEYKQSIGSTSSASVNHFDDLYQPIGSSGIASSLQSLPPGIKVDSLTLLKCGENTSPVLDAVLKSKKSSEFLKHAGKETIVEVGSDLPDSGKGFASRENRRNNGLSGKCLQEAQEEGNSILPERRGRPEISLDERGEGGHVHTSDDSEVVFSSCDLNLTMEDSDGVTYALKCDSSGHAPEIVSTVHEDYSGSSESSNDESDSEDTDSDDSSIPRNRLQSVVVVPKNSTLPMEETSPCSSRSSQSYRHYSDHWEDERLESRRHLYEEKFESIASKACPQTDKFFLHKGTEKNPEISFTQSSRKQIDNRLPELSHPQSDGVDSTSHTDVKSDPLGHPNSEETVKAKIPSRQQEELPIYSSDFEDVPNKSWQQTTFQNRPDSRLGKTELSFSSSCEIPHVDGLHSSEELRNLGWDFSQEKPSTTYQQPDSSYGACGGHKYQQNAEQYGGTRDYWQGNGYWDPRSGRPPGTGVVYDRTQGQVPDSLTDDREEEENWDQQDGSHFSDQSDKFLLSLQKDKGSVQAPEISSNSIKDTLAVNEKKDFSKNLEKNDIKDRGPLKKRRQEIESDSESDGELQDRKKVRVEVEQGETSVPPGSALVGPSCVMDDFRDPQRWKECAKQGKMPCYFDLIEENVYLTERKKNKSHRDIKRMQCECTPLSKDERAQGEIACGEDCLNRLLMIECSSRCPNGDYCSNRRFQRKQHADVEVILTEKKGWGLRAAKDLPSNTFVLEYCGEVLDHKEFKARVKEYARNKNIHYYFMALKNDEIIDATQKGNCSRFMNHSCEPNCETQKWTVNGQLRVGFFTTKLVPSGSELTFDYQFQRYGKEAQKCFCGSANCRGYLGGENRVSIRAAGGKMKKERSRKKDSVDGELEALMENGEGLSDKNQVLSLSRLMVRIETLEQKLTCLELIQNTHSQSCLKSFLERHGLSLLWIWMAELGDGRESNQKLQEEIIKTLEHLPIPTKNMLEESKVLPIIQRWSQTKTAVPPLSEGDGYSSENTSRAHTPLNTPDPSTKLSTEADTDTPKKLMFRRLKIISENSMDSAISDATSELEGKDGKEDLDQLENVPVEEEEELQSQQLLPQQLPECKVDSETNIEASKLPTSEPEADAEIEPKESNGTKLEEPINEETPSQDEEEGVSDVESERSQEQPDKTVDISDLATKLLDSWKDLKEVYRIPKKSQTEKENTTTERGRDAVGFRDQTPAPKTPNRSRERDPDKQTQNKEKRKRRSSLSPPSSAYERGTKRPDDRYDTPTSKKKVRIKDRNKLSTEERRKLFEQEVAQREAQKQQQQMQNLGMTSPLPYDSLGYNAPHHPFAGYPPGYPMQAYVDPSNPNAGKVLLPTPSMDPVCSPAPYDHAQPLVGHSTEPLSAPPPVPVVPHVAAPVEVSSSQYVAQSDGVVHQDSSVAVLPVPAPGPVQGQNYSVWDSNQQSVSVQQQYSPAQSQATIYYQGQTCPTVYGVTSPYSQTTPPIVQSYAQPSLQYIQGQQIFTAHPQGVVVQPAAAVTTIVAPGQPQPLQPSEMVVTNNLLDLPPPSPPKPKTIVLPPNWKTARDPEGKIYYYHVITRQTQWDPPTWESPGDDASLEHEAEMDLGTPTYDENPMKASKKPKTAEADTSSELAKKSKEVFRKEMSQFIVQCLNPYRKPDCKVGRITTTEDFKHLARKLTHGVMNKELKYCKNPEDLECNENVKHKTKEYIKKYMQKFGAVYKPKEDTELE
Out: 10.8 µM

----------
ASSAYED_SYSTEM: SMYD3 (Homo sapiens, UniProt Q9H7B4)
Sequence (Q9H7B4 1-428): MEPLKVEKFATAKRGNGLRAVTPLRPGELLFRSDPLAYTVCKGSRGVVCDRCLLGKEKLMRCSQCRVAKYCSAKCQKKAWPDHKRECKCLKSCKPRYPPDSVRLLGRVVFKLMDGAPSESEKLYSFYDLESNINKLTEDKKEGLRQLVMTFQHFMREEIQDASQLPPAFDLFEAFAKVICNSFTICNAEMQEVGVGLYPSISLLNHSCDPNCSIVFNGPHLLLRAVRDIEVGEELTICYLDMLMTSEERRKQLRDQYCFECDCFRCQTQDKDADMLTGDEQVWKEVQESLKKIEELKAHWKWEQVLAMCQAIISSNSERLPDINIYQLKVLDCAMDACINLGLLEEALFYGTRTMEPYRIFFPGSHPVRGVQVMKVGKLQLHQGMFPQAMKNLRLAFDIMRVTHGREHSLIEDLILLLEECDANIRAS
MEASURED_QUANTITY: pIC50
// pIC50 here means minus log10 of the molar concentration (mol/L)

In: Endpoint output: pIC50 of `Nc1ncnc2c1ncn2[C@@H]1O[C@H](CSCC[C@H](N)C(=O)O)[C@@H](O)[C@H]1O` . Value?
Out: 4.45
